Provenance of the data: ChEMBL document CHEMBL1201862

# System: SN12C
# Assay remarks: NCI tumour cell line growth inhibition, 48 h
The source made the active and inactive calls. Cut-off read from the data, not from the text of the source: active = GI50 up to about 1.1 µM and inactive = higher.
Assay endpoint: GI50

compound=O=C(O)COc1ccccc1C(=O)Nc1ccccc1 assay_endpoint=GI50 result="> 100 µM (inactive)"
compound="N#CC(C#N)=Cc1ccc(C(O)P(=O)(O)O)cc1 (stereo unspecified)" assay_endpoint=GI50 result="> 100 µM (inactive)"
compound=CN1CCN(c2nc3cc(F)ccc3n3cccc23)CC1 assay_endpoint=GI50 result="48.5 µM (inactive)"
compound="OC1C2C=CCC1CCC2 (stereo unspecified)" assay_endpoint=GI50 result="> 100 µM (inactive)"

In: Value lookup for GI50; key = `CCOC(=O)C1=C(Nc2ccc(Cl)cc2Cl)OC/C1=N\NS(=O)(=O)c1ccc(C)cc1`
Out: > 100 µM (inactive)

In: Here is the next compound: `CC1=C[C@@H]2Cc3occc3C(C)(C)[C@@H]2CC1`
Out: 15.8 µM (inactive)

* * *

# System: MOLT-4
# Assay remarks: NCI tumour cell line growth inhibition, 48 h
Calls of active or inactive are those of the source. Cut-off read from the data, not from the text of the source: active = GI50 up to about 1.1 µM and inactive = higher.
Select the matching outcome among t = active, f = inactive

compound="CCN(CC)C1Oc2cc3c(cc2C(c2cc(OC)c(O)c(OC)c2)C1C)OCO3 (stereo unspecified)" class_label=f
compound=Cc1ccccc1Nc1nc2c(s1)C(=O)c1ccccc1C2=O class_label=f
compound=C/C(=N\N=C(/S)N(C)C)c1cccnn1 class_label=t
compound=CS/C(=N\C(=S)N(C)C)N(c1ccccc1)c1nc(N(C)C)s[s+]1 class_label=f
compound=CCc1ccccc1NC(=O)CCc1n[nH]c(=S)o1 class_label=f
compound=COc1ccc2c(c1)[n+]([O-])c(C(=O)C/C(=N\NC(=O)C[N+](C)(C)C)C(=O)Nc1cc(Cl)ccc1Cl)c(C)[n+]2[O-] class_label=f
compound=CCn1c2ccccc2c2ccc(C3C(C(=O)OC)=C(C)NC(C)=C3C(=O)OC)cc21 class_label=f
compound="CCC12CCCNC1c1c(n(C)c3ccccc13)C(C(=O)OC)C2 (stereo unspecified)" class_label=f
compound=CCOC(=O)NC(=O)c1cn(CCSCCOC(=O)NCCCCCCNC(=O)OCCSCCn2cc(C(=O)NC(=O)OCC)c(=O)n(C)c2=O)c(=O)n(C)c1=O class_label=f
compound="O=C1NC2C=CN(Cc3ccccc3)C=C2C(=O)N2CCCC12 (stereo unspecified)" class_label=f

Proceed to the following item.
In: Write down the call the test reported for this compound. Item: `O=Cc1ccc2ccocc1-2`
Out: f

* * *

# Tested on: CCRF-CEM
# Assay remarks: NCI tumour cell line growth inhibition, 48 h
Active and inactive are the calls of the source. Rule as the data show it: active = GI50 up to about 1.1 µM and inactive = higher.
Each entry below carries its reported GI50.

# annotated cases, reported GI50 shown
molecule="CC(C)(C)NC(=O)CCC1C(C(=O)NC(C)(C)C)C2(Cl)C(Cl)=C(Cl)C1(Cl)C2(Cl)Cl (centres undefined)" assay_endpoint=GI50 result="> 100 µM (inactive)"
molecule=COc1ccc(NC(=O)CC(=O)N/N=C/c2ccc(N(CCC#N)S(=O)(=O)c3ccccc3)cc2)cc1 assay_endpoint=GI50 result="> 100 µM (inactive)"
molecule=COC(=O)/C(C#N)=C1\NN=NN1CCCc1ccccc1 assay_endpoint=GI50 result="> 100 µM (inactive)"
molecule=CCOC(=O)/C=C/c1c[nH]c(=O)[nH]c1=O assay_endpoint=GI50 result="> 75 µM (inactive)"
molecule="COc1ccc2nc3cc(Cl)ccc3c(NCCC(=O)OCC(O)C(O)C(O[C@H](C)C(=O)NC(C)C(=O)NC(CCC(N)=O)C(=O)OCc3ccccc3)C(C=O)NC(C)=O)c2c1 (some centres undefined)" assay_endpoint=GI50 result="23.2 µM (inactive)"

In: Look up GI50 for this molecule: `CC(C)(C)/N=c1/n(C(C)(C)C)oc(=O)n1-c1ccccc1`
Out: > 50 µM (inactive)

In: Same read-out for CC1C(=O)CC(c2cccs2)N(N=O)C1c1cccs1 (centres undefined) ?
Out: 34 µM (inactive)

In: Again, but for `CCOC(=O)c1ccc2c(c1)Cc1cc([N+](=O)[O-])ccc1-2`
Out: 61.2 µM (inactive)

In: Further, for Cc1cc(Cl)ccc1NC(=O)C1C(=O)C(=O)N(c2ccc(Cl)cc2C)C1=O (centres undefined) ?
Out: 55.6 µM (inactive)
